Values from patent US20090298765A1

- target_or_test_system: human OT7T175 (metastin receptor) (human, UniProt Q969F8 1-398)
- Sequence (Q969F8 whole entry L364H): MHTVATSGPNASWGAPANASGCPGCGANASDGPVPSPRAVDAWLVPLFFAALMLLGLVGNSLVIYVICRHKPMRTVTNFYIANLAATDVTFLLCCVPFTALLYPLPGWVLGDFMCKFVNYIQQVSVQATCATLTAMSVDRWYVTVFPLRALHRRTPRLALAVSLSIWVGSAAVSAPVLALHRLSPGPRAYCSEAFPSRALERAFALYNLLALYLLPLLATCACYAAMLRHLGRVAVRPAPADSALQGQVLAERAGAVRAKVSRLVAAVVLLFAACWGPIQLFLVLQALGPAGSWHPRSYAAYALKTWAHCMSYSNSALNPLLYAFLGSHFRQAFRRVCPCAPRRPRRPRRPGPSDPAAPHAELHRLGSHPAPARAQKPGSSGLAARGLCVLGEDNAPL
- procedure_text: cell-based or functional assay
Non-standard residues stand in square brackets, D forms with d. No end group written: not given here. Arg(Me) = CNC(=N)NCCC[C@H](N)C(=O)O
Below is a list of entries, each paired with its recorded Ca ion level-increasing activity (FLIPR) value.

Use these answered entries as a reference point.
YNWNSFGLRX (Cha10; C-terminal amide, also called Compound No. 112) [[Cha10]MS10]    2 x Metastin (1-54)
Metastin (peptide) peptide: GTSLSPPPESSGSRQQPGLSAPHSRQIPAPQGAVLVQREKDLPNYNWNSFGLRF    1 x Metastin (1-54)
YN[dW]NSFGLRF-NH2 [[D-Trp3]MS10]    30 x Metastin (1-54)
[dY]NSNSFGL[Arg(Me)]F-NH2 (N-terminus assumed; SMILES CNC(=N)NCCC[C@H](NC(=O)[C@H](CC(C)C)NC(=O)CNC(=O)[C@H](Cc1ccccc1)NC(=O)[C@H](CO)NC(=O)[C@H](CC(N)=O)NC(=O)[C@H](CO)NC(=O)[C@H](CC(N)=O)NC(=O)[C@H](N)Cc1ccc(O)cc1)C(=O)N[C@@H](Cc1ccccc1)C(N)=O, also called Compound No. 170) [[D-Tyr1,Ser3,Arg(Me)9]MS10]    1 x Metastin (1-54)

Now look at this entry.
*Q* Request the reported Ca ion level-increasing activity (FLIPR) associated with YNWNSXGLRF (Nal(2)6; C-terminal amide, also called Compound No. 152) [[Nal(2)6]MS10]
*A* 5 x Metastin (1-54)
